system: HepG2-A16-CD81EGFP cells; assay: cells; details: Homo sapiens, HepG2, read-out: % inhibition
READOUT_LABEL: inhibition at 50 µM (%)

| MOLECULE | READOUT_LABEL | TEST_VALUE |
| --- | --- | --- |
| CCn1c(SCC(=O)Nc2cc(C(F)(F)F)ccc2Cl)nc2ccccc2c1=O | inhibition at 50 µM | -3.72 |
| CCCc1cc(O)c2c3c(c(=O)oc2c1)CN(C)CC3 | inhibition at 50 µM | 10.6 |
| CCCCCCc1cc(O)c2c3c(c(=O)oc2c1)CCC(C)C3 (stereo not drawn) | inhibition at 50 µM | 95.8 |
| OC(CNC1CCCC1)Cn1c2ccccc2c2ccccc21 (stereo not drawn) | inhibition at 50 µM | 96.9 |
| O=C(Nc1ccc(Br)cc1)Nc1cccc(Cl)c1 | inhibition at 50 µM | 66.2 |
| O=C(Nc1ccsc1C(=O)NC1CCCCC1)c1ccc(F)cc1 | inhibition at 50 µM | 25.8 |
| CCOc1ccc(-n2cc(-c3ccccc3)c3c(SCc4cc(C)ccc4C)ncnc32)cc1 | inhibition at 50 µM | -12.2 |
| COCCNC(=O)c1ccc(OC2CCN(Cc3ccc(F)c(F)c3)CC2)c(Cl)c1 | inhibition at 50 µM | 90.7 |
| COc1ccc(C2N(C)c3ccccc3N2C)cc1 | inhibition at 50 µM | 76.8 |
| O=C(Nc1ccccc1O)c1ccc(Oc2cccc(C(=O)Nc3ccccc3O)c2)cc1 | inhibition at 50 µM | 98.7 |
| COc1ccc(Nc2nc(NCc3ccccc3)c3ccccc3n2)cc1 | inhibition at 50 µM | 99.3 |
| COc1ccc(C(=O)Nc2nonc2-c2ccc(OC)c(OC)c2)cc1Cl | inhibition at 50 µM | -1.34 |
| COc1cccc(-c2nn(C)c3sc(C(=O)NCCN4CCN(c5ccccc5F)CC4)cc23)c1 | inhibition at 50 µM | 53.8 |
| COc1cccc(NC(=O)Cn2c(C)c(C#N)c3ccccc32)c1 | inhibition at 50 µM | 49.1 |
| O=C(Nc1ccc(Cl)cc1C(=O)Nc1ccncc1)c1ccc(Cl)cc1Cl | inhibition at 50 µM | 78.3 |
| Cc1cccc(N2C(=O)C3C(C2=O)C2(c4ccccc4)C(=O)C3(c3ccccc3)C(c3ccc4c(c3)OCO4)=C2c2ccc3c(c2)OCO3)c1 (stereo not drawn) | inhibition at 50 µM | -4.28 |
| CCN1CCN(Cc2ccc(NC(=O)c3cc4ccc5cccnc5c4[nH]3)cc2)CC1 | inhibition at 50 µM | 98.4 |
| COc1cccc(C2(C)Nc3ccccc3-c3nc4ccccc4n32)c1 (stereo not drawn) | inhibition at 50 µM | 97 |
